# Test system: HOP-62 NSCLC
# Assay Details: NCI-60 one-dose screen, 48 h (100 = growth as untreated, 0 = no growth, -100 = all killed)
# Condition Info: 10 µM unless noted
The panel holds about 83,000 compounds, 20% with a hit somewhere; the sample as a whole holds those more often. The source made the active and inactive calls. The calls were made as follows: active = growth percent below 10; inactive = the rest.
Readout: growth

* O=[N+]([O-])c1ccccc1CN1CCCCC1 | 107% (inactive)
* CCOCC(O)(c1ccc(Cl)cc1)c1ccc(Cl)cc1 | 115% (inactive)
* COc1cc(C2CC(c3ccc(Nc4ccnc5cc(Cl)ccc45)cc3)=NN2c2ccccc2)cc(OC)c1OC (stereo unspecified) | 72.8% (inactive)
* CCN(CC)C(Cl)=Nc1ccc(Cl)cc1 | 99.8% (inactive)
* COc1ccc(C2=CC(c3ccc(OC)cc3Br)N3C=CSC3=N2)cc1 (stereo unspecified) | 75.6% (inactive)
* CCCc1cc2c(cc1CN(Cc1cc3c(cc1CCC)OCO3)C(=N)OCC)OCO2 | 83.7% (inactive)
* CN(CCO)c1ccc(N2Cc3ccccc3OC3=C2C(=O)c2c(O)ccc(O)c2C3=O)cn1 | -46.3% (active)
* Fc1[nH]nc2ccc([C@@H]3Nc4ccc5[nH]ncc5c4[C@H]4C5CCC(C5)[C@@H]34)cc12 (stereo partly specified) | 37.6% (inactive)
* Clc1ccccc1Nc1nnc(-c2ccncc2)s1 | 118% (inactive)
* O=C(NCCNC(=O)c1cc(S(=O)(=O)NCCc2ccccc2)c(O)c(O)c1O)c1cc(S(=O)(=O)NCCc2ccccc2)c(O)c(O)c1O | 34.6% (inactive)

Proceed to the following item.
Task item: Look up growth: `SCc1ccc(CS)cc1`
Reply: 102% (inactive)

---

# System: OVCAR-5 ovarian
# Assay Details: NCI-60 one-dose screen, 48 h (100 = growth as untreated, 0 = no growth, -100 = all killed)
# Condition Info: 10 µM unless noted
Compounds without any hit were thinned out: in the full panel of roughly 83,000, 20% have a hit.
Readout: growth (%)
One number for each entry, in %.

# example entries with known answers
* COc1ccc2[nH]c(O)c(/C=c3/ccc4c(c3)N=C(c3ccc(C(F)(F)F)cc3)N=4)c2c1 | 113
* Cc1[nH]nc2ccc3nc(-c4ccc5[nH]ncc5c4)c4c(c3c12)CCCC4 | 46.6
* CCN(CC)CCC(CNc1ccnc2cc(Cl)ccc12)c1ccc(O)cc1 (stereo not given) | 103
* Cc1n(Cc2ccc3ccccc3n2)cc[n+]1Cc1ccc2ccccc2n1 | 83.4
* SCc1ccc(CS)cc1 | 95.9
* O=C(CCc1nc2sc3c(c2c(=O)[nH]1)CCC3)NCc1cn(-c2ccccc2)nc1-c1ccccc1 | 86.2
* CCCCCCCCCCCCCCCCS(=O)(=O)Nc1cc(C(=O)NN)cc(C(=O)NN)c1 | 68.3
* C#CC[C@@H]1C[C@]2(C)[C@H]3CC=C4[C@H]5[C@@H](C)[C@H](C)CC[C@]5(C(=O)NCCCCN)CC[C@@]4(C)[C@]3(C)CC[C@H]2C(C)(C)[C@H]1OC(C)=O | 108
* Fc1ccc2nc(-c3ccc(-c4noc(-c5ccc(Cl)cc5)n4)cc3)[nH]c2c1 | 113

Task item: Given the entry `Cc1cc(C)c2c(NC(=O)Nc3ccc(Cl)c(Cl)c3)n[nH]c2n1` , what growth was observed with OVCAR-5 ovarian?
Reply: 101

---

# Tested on: HCC-2998 colon
# Assay Details: NCI-60 one-dose screen, 48 h (100 = growth as untreated, 0 = no growth, -100 = all killed)
# Condition Info: 10 µM unless noted
This is part of a sample that, as a whole, favours compounds with a hit. Of some 83,000 tested, about 20% had one in any assay.
Readout: growth (%)
One number for each entry, in %.

# count of solved cases: 5
- Cc1ccc(O)c(Cc2ccccc2)c1: 102
- N#Cc1nc(-c2ccc(Cl)cc2)cc(-c2ccc(Nc3nc(N4CCCCC4)nc(N4CCCCC4)n3)cc2)c1N: 112
- CCN(CC)CCCC(C)Nc1cnc(C(=O)Nc2cccc3ccc(OC)nc23)cn1 (configuration not stated): 90.9
- N#Cc1c(N)c(C(=O)c2ccc3c(c2)OCCO3)n2c1CCCC2: 59.6
- CCCCC(CCc1ccccn1)C(=O)c1ccccc1 (configuration not stated): 111

Each molecule below has a recorded value; state its growth.
1. COc1ccc(C(=O)c2cc(C)c(OC)c(C)c2)cc1OC(=O)CCl
2. COc1cc(C2CC(c3ccc(Nc4ccnc5cc(Cl)ccc45)cc3)=NN2c2ccccc2)cc(OC)c1OC (configuration not stated)
3. CCN(CC)CCCC(C)Nc1cnc(C(=O)Nc2cc(C)cc3cccnc23)cn1 (configuration not stated)
4. Cc1nc2ccc(Nc3nc(N4CCOCC4)nc(N4CCN(C)CC4)n3)cc2n1Cc1ccccc1
5. O=C(OCc1ccc2c(Cl)cc(Cl)c(O)c2n1)c1cc2ccccc2[nH]1

Reply:
27
67.7
89.8
96.3
-73.1

Please supply growth for each of the following items, keeping them in order.
1. CS(=O)(=O)Nc1cc(-c2cc3ncc(C#N)c(Nc4ccc(Oc5ccccc5)c(Cl)c4)c3s2)cnc1Cl
2. N#Cc1ccc(NC(=O)Nc2nc3ccc(OC(F)(F)F)cc3s2)cc1

Reply:
1. 64.5
2. -5.67

---

Consider the following molecules; for each one, report its growth.
# System: HCT-15 colon
# Assay Details: NCI-60 one-dose screen, 48 h (100 = growth as untreated, 0 = no growth, -100 = all killed)
# Condition Info: 10 µM unless noted
This is part of a sample that, as a whole, favours compounds with a hit. Of some 83,000 tested, about 20% had one in any assay.
Answers are plain numbers, in %.

Answered examples (6):
- CCOc1cccc(/C=N/NC(=O)Cc2ccc(Nc3ccnc(C(F)(F)F)c3)cc2)c1O: 17.3
- CN1CCN(Cc2ccc(NC(=O)c3cccc(C#Cc4cnc(N)c5ncccc45)c3F)cc2C(F)(F)F)CC1: -57.2
- CCc1ccc(Nc2ncnc3c2cnn3-c2cccc(Br)c2)cc1: 101
- Cc1ccc(C2CC(c3cccs3)=NN2c2ccc(S(N)(=O)=O)cc2)s1 (stereo not given): 80.8
- COc1ccc(C2CC(c3cccc(Nc4ccnc5cc(Cl)ccc45)c3)=NN2c2ccc(Cl)cc2)cc1 (stereo not given): 42.5
- COc1ccc(C2CC(c3cccc(Nc4ccnc5cc(Cl)ccc45)c3)=NN2c2ccccc2)cc1 (stereo not given): 46.6

Would you be so kind as to report growth for each listed record?
1. COc1ccc(/C=c2\c(=O)n(-c3ccccc3)c3nn4c(=O)c(=O)[nH]nc4n23)cc1
2. CCCNC(=S)N/N=C(\C)c1ccccn1
3. NCCCOc1cc2ccccc2cc1C(=O)NCCCOc1cc2ccccc2cc1C(=O)Nc1ccc(Cl)cc1O

Reply:
[106, 28.5, -55.3]

Task item: What reported growth corresponds to `CCCCCCCCCCCCCC[N+](C)(C)CCCCCCCCCCCCCC` on HCT-15 colon?
Reply: 75.1

---

# Tested on: TK-10 renal
# Assay Details: NCI-60 one-dose screen, 48 h
# Condition Info: 10 µM unless noted
This is part of a sample that, as a whole, favours compounds with a hit. Of some 83,000 tested, about 20% had one in any assay. Activity calls are given as the source filed them. Rule for the calls: active = growth percent below 10; inactive = the rest.
One label from this list, please: active, inactive

Check out these entries, answers already filled in.
- C#CC[C@@H]1C[C@]2(C)[C@H]3CC[C@@H]4[C@H]5C(C(=C)C)CC[C@]5(C(=O)NCCN(CCN)CCN)CC[C@@]4(C)[C@]3(C)CC[C@H]2C(C)(C)[C@H]1OC(C)=O (some centres undefined): inactive
- COc1ccc(-c2nsc3c2NC(=O)CC3c2ccc3c(c2)OCO3)cc1 (centres undefined): inactive
- CC[C@H](Nc1nc(N)nc(N)c1Cl)c1nc2cccc(NCc3ccc(C(=O)NO)cc3)c2c(=O)n1-c1ccccc1: active

Task item: What outcome does the record of this test show for `Clc1ccccc1Nc1nnc(-c2ccncc2)s1` ?
Reply: inactive

Task item: For `COCCCNCC(=O)Nc1c(C)cccc1C` , which call appears in the assay record?
Reply: inactive

Task item: Hey, what did the test say about `Oc1[nH]c2ccccc2c1/C=c1/ccc2c(c1)N=C(c1ccc(C(F)(F)F)cc1)N=2` ?
Reply: inactive

Task item: Please let me know the test result on file for `COc1ccc(/C=C/C(=O)c2ccc(NC(=O)CSc3nnc(-c4ccc(OC)cc4)n3-c3ccccc3)cc2)cc1` .
Reply: inactive

Task item: Entry COc1ccc(C2CC(c3cccc(Nc4ccnc5cc(Cl)ccc45)c3)=NN2c2ccccc2)cc1 (centres undefined) : call = ?
Reply: inactive

Task item: So what was the verdict on CC(=O)OC1Oc2cc(C)c(C)cc2-c2oc(=O)c(-c3ccc(F)cc3)cc21 (centres undefined) in this test?
Reply: inactive

---

# Test system: SNB-19 CNS
# Assay Details: NCI-60 one-dose screen, 48 h (100 = growth as untreated, 0 = no growth, -100 = all killed)
# Condition Info: 10 µM unless noted
# Experimental: Growth inhibition of the SNB-19 human tumor cell line is measured as a screen for anti-cancer activity. Cells are grown in 96 well plates and exposed to the test compound for 48 hours. Compounds are tested at a single concentration, which is 10^-5 M for most compounds. The reported endpoint is percent growth (GI% or GIPRCNT), where numbers from 0 - 100% represent growth inhibition, and numbers from -100% - 0 represent cell death. For example, a value of 40 represents 60% growth inhibition. […]
The panel holds about 83,000 compounds, 20% with a hit somewhere; the sample as a whole holds those more often.
Readout: growth (%)
Give bare numbers, in %.

Go through the list and state growth for each entry.
1. CC1=C(O)C(=O)C(c2c(C)cc(C)c(Br)c2C)=C(O)C1=O
2. COc1cc2c(cc1C)NC(=O)/C2=C\c1c[nH]c2ccccc12
3. NC(=S)N/N=C(/c1cccs1)C1CC1
4. COc1ccc2cc(-c3nc(C)c(C(C)=O)c(-c4ccc(C)cc4)n3)ccc2c1
5. O=C1C=CC(=O)N1c1cccc(N2C(=O)C=CC2=O)c1

Reply:
63.9
84.7
100
92.8
147

Required: growth, one value per compound below.
1. CCN1CCN(Cc2ccc(NC(=O)c3nc4ccc5[nH]ncc5c4c4c3CCCC4)cc2C(F)(F)F)CC1
2. O=C(O)/C=C(\c1nc2ccc([N+](=O)[O-])cc2[nH]1)c1cc(Cl)ccc1O

Reply:
1. 13.9
2. 18.5

Provide growth values for the following items, in order.
1. COc1ccc(CCN2COc3c([C@@H](C)CCC=C(C)C)ccc(C)c3C2)cc1OC
2. C#CC[C@@H]1C[C@]2(C)[C@H]3CC=C4[C@H]5[C@@H](C)[C@H](C)CC[C@]5(C(=O)NCCCCCCCCN)CC[C@@]4(C)[C@]3(C)CC[C@H]2C(C)(C)[C@H]1OC(C)=O

Reply:
83.3
64.8
